tested on: MDA-MB-468 breast; assay: NCI tumour cell line growth inhibition, 48 h; in the data active = GI50 below about 0.43 µM; inactive = the rest
Write down the outcome that applies. Available outcomes: yes (1) for active, no (0) for inactive

Cc1ncc(C(=O)Nc2ccc(CN3CCN(C)CC3)c(C(F)(F)F)c2)cc1C#Cc1c(N)ncc2ccc(F)cc12	no (0)

## Task # fetch the recorded call for "Oc1c(I)cc(I)cc1CNCCN(Cc1ccccn1)Cc1ccccn1" here
## Result no (0)

## Task # fetch the recorded call for COc1cc(C2CC(c3cccc(Nc4ccnc5cc(Cl)ccc45)c3)=NN2C=O)cc(OC)c1OC (stereo not given) here
## Result yes (1)

## Task # fetch the recorded call for "Cn1cc(C2=C(Oc3ccccc3)C(=O)NC2=O)c2ccccc21" here
## Result no (0)

## Task # fetch the recorded call for "CCN(CC)c1ccc(/C=N/NC(=O)c2ccc(S(C)(=O)=O)cc2)c(O)c1" here
## Result yes (1)

----------
system: ACHN renal; test: NCI tumour cell line growth inhibition, 48 h
So I've got a bunch of molecules here, and I need their TGI values.
Numbers only, in µM.

CSc1ccc(NC(=O)c2ccc3nn(/C(C#N)=C/c4ccccn4)nc3c2)cc1	2.88

Please turn your attention to the following entry.
## Task Data request, read-out TGI, for "CCN1CCN(Cc2ccc(C(=O)Nc3cccc(Nc4ccc5c(OC)cccc5n4)c3)cc2C(F)(F)F)CC1"
## Result 4.32

----------
tested on: MCF7 breast; assay: NCI tumour cell line growth inhibition, 48 h
Measurement type: GI50

Cn1cc(-c2cc(N)n3nc(-c4c[nH]c5ccc(F)cc45)cc3n2)c2cccnc21	2010 nM
COc1ccc2[nH]c(=O)c(CSc3ccccc3Nc3nccc(-c4ccc(C(F)(F)F)cc4)n3)cc2c1	2970 nM
CSc1ccc(NC(=O)c2ccc3nn(/C(C#N)=C/c4ccccn4)nc3c2)cc1	971 nM

Please turn your attention to the following entry.
## Task Data request, read-out GI50, for COc1ccc(CCC2NCCc3c(Br)c4c(c(OC)c32)OCO4)cc1 (centres undefined)
## Result 7130 nM

----------
system: MDA-MB-468 breast; test: NCI tumour cell line growth inhibition, 48 h; in the data active = GI50 below about 0.43 µM; inactive = the rest
Write down the outcome that applies. Available outcomes: active, inactive

Example entries and their recorded answers appear below.
O=C1CCC(N2Cc3c(C#CCCCNC(=O)c4ccc(NC(=O)[C@@H]5NC6(CCCCC6)[C@@]6(C(=O)Nc7cc(Cl)ccc76)[C@H]5c5cccc(Cl)c5F)cc4)cccc3C2=O)C(=O)N1 (some centres undefined)	inactive
CN1N=C(N)c2cn(C3OC(COP(=O)(O)O)C(O)C3O)c3ncnc1c23 (centres undefined)	active
CSc1ccc(NC(=O)c2ccc3nn(/C(C#N)=C/c4ccccn4)nc3c2)cc1	inactive

Shifting focus to the compound that follows.
## Task # fetch the recorded call for "Cn1cc(-c2cc(N)n3nc(-c4c[nH]c5ccc(F)cc45)cc3n2)c2cccnc21" here
## Result inactive

----------
tested on: MDA-MB-468 breast; test: NCI tumour cell line growth inhibition, 48 h
Measurement type: TGI (nM)
Answers are plain numbers, in nM.

In the examples that follow, each entry is paired with its recorded TGI.
CSc1nc(N)cc(Oc2ccc(-c3nc(Nc4cccc(C(F)(F)F)c4)n[nH]3)cc2)n1	2660
COc1ccc(CCC2NCCc3c(Br)c4c(c(OC)c32)OCO4)cc1 (centres undefined)	15900

## Task Data request, read-out TGI, for "CCN(CC)c1ccc(/C=N/NC(=O)c2ccc(S(C)(=O)=O)cc2)c(O)c1"
## Result 1270

----------
So I've got a bunch of compounds here, and I need their GI50 values.
tested on: SK-OV-3 ovarian; assay: NCI tumour cell line growth inhibition, 48 h

In the examples that follow, each entry is paired with its recorded GI50.
CSc1ccc(NC(=O)c2ccc3nn(/C(C#N)=C/c4ccccn4)nc3c2)cc1	2.72 µM
COc1ccc(CCC2NCCc3c(Br)c4c(c(OC)c32)OCO4)cc1 (centres undefined)	10.5 µM
COc1ccc2[nH]c(=O)c(CSc3ccccc3Nc3nccc(-c4ccc(C(F)(F)F)cc4)n3)cc2c1	15.8 µM

Please turn your attention to the following entry.
## Task Data request, read-out GI50, for "CCN1CCN(Cc2ccc(C(=O)Nc3cccc(Nc4ccc5c(OC)cccc5n4)c3)cc2C(F)(F)F)CC1"
## Result 12.6 µM

----------
test system: SK-MEL-28 melanoma; experiment: NCI tumour cell line growth inhibition, 48 h
Measurement type: TGI (µM)
Numbers only, in µM.

Cn1cc(-c2cc(N)n3nc(-c4c[nH]c5ccc(F)cc45)cc3n2)c2cccnc21	3.17

# batch: return TGI for each of the 2 molecules below
1. COc1ccc2[nH]c(=O)c(CSc3ccccc3Nc3nccc(-c4ccc(C(F)(F)F)cc4)n3)cc2c1
2. COc1ccc(CCC2NCCc3c(Br)c4c(c(OC)c32)OCO4)cc1 (centres undefined)

## Result
1: 24.1; 2: 12.6

## Task Data request, read-out TGI, for "CCN1CCN(Cc2ccc(C(=O)Nc3cccc(Nc4ccc5c(OC)cccc5n4)c3)cc2C(F)(F)F)CC1"
## Result 2.87

----------
system: MDA-MB-468 breast; experiment: NCI tumour cell line growth inhibition, 48 h
Measurement type: GI50

Cc1cc(Nc2nc(-c3ccc(F)cc3)nc3ccccc23)n[nH]1	2010 nM
CCn1c(-c2nonc2N)nc2c(C#CC(C)(C)O)nc(CN3CCCC3)cc21	4150 nM

Please turn your attention to the following entry.
## Task Data request, read-out GI50, for "COc1ccc2[nH]c(=O)c(CSc3ccccc3Nc3nccc(-c4ccc(C(F)(F)F)cc4)n3)cc2c1"
## Result 2650 nM

----------
So I've got a bunch of compounds here, and I need their GI50 values.
system: SK-MEL-5 melanoma; test: NCI tumour cell line growth inhibition, 48 h

CCN1CCN(Cc2ccc(C(=O)Nc3cccc(Nc4ccc5c(OC)cccc5n4)c3)cc2C(F)(F)F)CC1	1450 nM
CSc1ccc(NC(=O)c2ccc3nn(/C(C#N)=C/c4ccccn4)nc3c2)cc1	1680 nM
COc1ccc(CCC2NCCc3c(Br)c4c(c(OC)c32)OCO4)cc1 (centres undefined)	3640 nM

Please turn your attention to the following entry.
## Task Data request, read-out GI50, for "Cn1cc(-c2cc(N)n3nc(-c4c[nH]c5ccc(F)cc45)cc3n2)c2cccnc21"
## Result 11600 nM
